Experimental Target: T1, wildtype feline IL-31 protein (Feline_IL31_wildtype) (feline)
T1 construct: Full length feline IL-31 with C-terminal His tag, secreted from ExpiCHO cells; also called fIL-31
T1 chain: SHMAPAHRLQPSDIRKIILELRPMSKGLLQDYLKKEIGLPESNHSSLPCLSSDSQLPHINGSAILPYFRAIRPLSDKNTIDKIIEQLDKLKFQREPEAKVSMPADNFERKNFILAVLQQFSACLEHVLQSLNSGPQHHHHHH
Procedure Summary: SPR (Biacore), IL-31 on chip, 1:1 fit
Kindly return 1 (yes) if reported kon is no lower than 20000 M⁻¹ s⁻¹; return 0 (no) if it is lower.

Before answering, review these 2 worked examples.
Assess whether reported kon for Feline 15H05 1.1 FW2_3 (antibody, V domains shown) VH: QVLLVQSGAEVRTPGASVKIFCKASGYSFTSYTIHWLRQAPAQGLEWMGNINPTSGYTENNQRFKDRLTLTADTSTNTAYMELSSLRSADTAMYYCARWGFKYDGEWSFDVWGAGTTVTVSS VL: EIQMTQSPSSLSASPGDRVTITCRASQGISIWLSWYQQKPGNIPKVLINKASNLHIGVPPRFSGSGSGTHFTLTITSLQPEDIATYYCLQSQTYPLTFGGGTKLEIK sits at 20000 M⁻¹ s⁻¹ or higher. 0 (no)

Assess whether reported kon for Feline 15H05 VH3 mouse VL (antibody, V domains shown, Heterochimeric antibody; also called felinized 15H05 VH3 with mouse 15H05 VL (heterochimera)) VH: QVLLVQSGAEVRKPGASVKIFCKASGYSFTSYTIHWLRQAPEQGLEWMGNINPTSGYTENNQRFKDRLTLTADTSTNTAYMELSSLRSADTAMYYCARWGFKYDGEWSFDVWGAGTTVTVSS VL: DIQMNQSPSSLSASLGDTITVTCRASQGISIWLSWYQQKPGNIPKVLINKASNLHIGVPPRFSGSGSGTHFTLTITSLQPEDIATYYCLQSQTYPLTFGGGTKLEIN sits at 20000 M⁻¹ s⁻¹ or higher. 1 (yes)

---
Assess whether reported kon for mouse anti IL-31 antibody 11E12 (antibody, V domains shown, Mouse monoclonal comparison antibody; also called MU-11E12; mouse 11E12) VH: QVQLQQSGAELVKPGASVKLSCKASGYTFKYYDINWVRQRPEQGLEWIGWIFPGDGGTKYNETFKGKATLTTDKSSSTAYMQLSRLTSEDSAVYFCARGGTSVIRDAMDYWGQGTSVTVSS VL: DIVLTQSPASLAVSLGQRATISCRASESVDNYGISFMHWYQQKPGQPPKLLIYRASNLESGIPARFSGSGSRTDFTLTINPVETDDVATYYCQQSNKDPLTFGAGTKLELK sits at 20000 M⁻¹ s⁻¹ or higher. 1 (yes)

Assess whether reported kon for Feline 15H05 1.2 (antibody, V domains shown, Feline heavy and kappa constant regions) VH: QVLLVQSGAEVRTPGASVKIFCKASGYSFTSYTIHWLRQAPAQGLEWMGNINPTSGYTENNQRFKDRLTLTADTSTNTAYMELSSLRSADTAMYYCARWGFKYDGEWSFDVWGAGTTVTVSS VL: EITMTQSPGSLAGSPGQQVTMNCRASQGISIWLSWYQQKPGQHPKLLIYKASNLHIGVPDRFSGSGSGTDFTLTISNLQAEDVASYYCLQSQTYPLTFGGGTKLEIK sits at 20000 M⁻¹ s⁻¹ or higher. 0 (no)

Assess whether reported kon for Feline 15H05 1.1 Y49N (antibody, V domains shown) VH: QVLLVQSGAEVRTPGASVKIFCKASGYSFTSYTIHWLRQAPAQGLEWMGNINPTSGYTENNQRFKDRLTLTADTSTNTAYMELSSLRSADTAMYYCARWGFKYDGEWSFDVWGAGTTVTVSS VL: EIQMTQSPSSLSASPGDRVTITCRASQGISIWLSWYQQKPGKVPKLLINKASNLHIGVPSRFSGSGSGTDFTLTISSLEPEDAATYYCLQSQTYPLTFGGGTKLEIK sits at 20000 M⁻¹ s⁻¹ or higher. 1 (yes)

The reported numbers originate from patent US20250136677A1.
